Hey, just so you know, these numbers are from PubChem BioAssay AID1347416.

experiment.description: qHTS Validation assay for Inhibitors of Plasmodium falciparum Dd2 growth in vitro; note: nearly all actives have a fitted effect of over 70% in size
test.conditions: P. falciparum Dd2 in RBCs, SYBR Green growth, 72 h; series mostly up to 28.7 µM
About 1,600 (39%) of roughly 4,100 compounds were called active. Not shown: some 25% with an inconclusive outcome. Calls come from the whole dose curve; as a rule, active = well fitted inhibition curve with a large enough effect; inconclusive = small, poorly fitted or top-dose-only effect; inactive = no such curve, though single readings can be large or run the other way. The list shows a part of the results.
Would you mind answering with one of these outcomes? 1 (active), 0 (inactive)

Task item: What did this assay record as the result for `CC(C)c1ccc(OCC(=O)NC2CCCC2)cc1` ?
Reply: 0

Task item: What did this assay record as the result for `O=C1[C@H]2CN(Cc3cc(F)ccc3F)C[C@H]2C(=O)N1Cc1ccc2c(c1)OCO2` ?
Reply: 0

Task item: What did this assay record as the result for `CC1CCN(C(=O)CSc2nc(-c3ccc(C(C)C)cc3)no2)CC1` ?
Reply: 1

Task item: What did this assay record as the result for CCC(C)NC(=O)CSc1nc2cc3c(cc2c(=O)n1CCCC(=O)NCc1ccc2c(c1)OCO2)OCO3 (stereo not given) ?
Reply: 0

Task item: What did this assay record as the result for `O=C(c1ccc(F)cc1)N1CCn2c(nnc2-c2ccccc2)C1` ?
Reply: 0

----------
experiment.description: qHTS Validation assay for Inhibitors of Plasmodium falciparum Dd2 growth in vitro; note: nearly all actives have a fitted effect of over 70% in size
test.conditions: P. falciparum Dd2 in RBCs, SYBR Green growth, 72 h; series mostly up to 28.7 µM
The campaign covered roughly 4,100 compounds. About 1,600 (39%) were called active. About 25% were inconclusive and are not listed. Calls follow the shape of the dose curve; as a rule, active = well fitted inhibition curve with a large enough effect; inconclusive = small, poorly fitted or top-dose-only effect; inactive = no such curve, though single readings can be large or run the other way. This is one part of the list.
Would you mind answering with one of these outcomes? active, inactive

Task item: What did this assay record as the result for `CCN(CC)c1ccc2oc(=O)c(C)nc2c1` ?
Reply: active

Task item: What did this assay record as the result for `COC[C@@H]1CN(Cc2cc(OC)cc(OC)c2)C[C@H]1C(=O)N(C)C` ?
Reply: inactive

Task item: What did this assay record as the result for `CC(C)(C)C(=O)NC(=S)Nc1ccccc1N1CCCC1` ?
Reply: inactive

Task item: What did this assay record as the result for `Nc1nc(N)c2cc(Sc3ccc4ccccc4c3)ccc2n1` ?
Reply: active

Task item: What did this assay record as the result for `CCn1cc(S(=O)(=O)N2CCCOCCNC(=O)[C@@H]3CCC[C@@H]32)cn1` ?
Reply: inactive

----------
experiment.description: qHTS Validation assay for Inhibitors of Plasmodium falciparum Dd2 growth in vitro; note: nearly all actives have a fitted effect of over 70% in size
test.conditions: P. falciparum Dd2 in RBCs, SYBR Green growth, 72 h; series mostly up to 28.7 µM
Among all 4,100 compounds or so, about 1,600 (39%) were called active. Not shown: some 25% with an inconclusive outcome. The call rests on the fitted dose curve; in most records, active means well fitted inhibition curve with a large enough effect; inconclusive means small, poorly fitted or top-dose-only effect; inactive means no such curve, though single readings can be large or run the other way. The list shows a part of the results.
Would you mind answering with one of these outcomes? active, inactive

Task item: What did this assay record as the result for `N#Cc1ccccc1CN1CCC([C@@H]2CNC[C@H]2CO)CC1` ?
Reply: inactive

Task item: What did this assay record as the result for COc1ccc(C(CCN2CCCCC2)c2c(O)cc(OC)cc2OC)cc1 (stereo not given) ?
Reply: active

Task item: What did this assay record as the result for `Cc1nn2c(c1-c1ccccc1OCc1ccccc1)N(Cc1ccccc1)CCC2` ?
Reply: active

Task item: What did this assay record as the result for O=C1Nc2ccccc2CC12CCCCN2Cc1ccc(C(F)(F)F)cc1 (stereo not given) ?
Reply: inactive

Task item: What did this assay record as the result for `CN(C)c1ccc(CN2CCC3(CC2)COc2ccccc2C(=O)N3)cc1` ?
Reply: active

----------
experiment.description: qHTS Validation assay for Inhibitors of Plasmodium falciparum Dd2 growth in vitro; note: nearly all actives have a fitted effect of over 70% in size
test.conditions: P. falciparum Dd2 in RBCs, SYBR Green growth, 72 h; series mostly up to 28.7 µM
The whole screen tested about 4,100 compounds, of which about 1,600 (39%) were called active. Not shown: some 25% with an inconclusive outcome. Calls come from the whole dose curve; as a rule, active = well fitted inhibition curve with a large enough effect; inconclusive = small, poorly fitted or top-dose-only effect; inactive = no such curve, though single readings can be large or run the other way. Some of the results follow.
Would you mind answering with one of these outcomes? active, inactive

Task item: What did this assay record as the result for `Cc1cn2nc(C(=O)Nc3ccc4c(c3)OCCO4)cc2c(N(C)Cc2ccccc2)n1` ?
Reply: inactive

Task item: What did this assay record as the result for `CN(CC1(C)CCOCC1)C(=O)c1ccoc1` ?
Reply: inactive

Task item: What did this assay record as the result for `Cc1cn2nc(C(=O)NCc3ccccc3F)cc2c(N(C)Cc2ccccc2)n1` ?
Reply: inactive

Task item: What did this assay record as the result for `O=c1c2ccccc2sc2nc(C3CCCCC3)n(Cc3ccco3)c(=O)c12` ?
Reply: active

Task item: What did this assay record as the result for `COc1cccc(NC(=S)N2CCN(S(=O)(=O)c3ccc(F)cc3)CC2)c1` ?
Reply: active

Task item: What did this assay record as the result for `Cc1cn2nc(C(=O)Nc3ccc(N(C)C)cc3)cc2c(N(C)Cc2ccccc2)n1` ?
Reply: active

----------
experiment.description: qHTS Validation assay for Inhibitors of Plasmodium falciparum Dd2 growth in vitro; note: nearly all actives have a fitted effect of over 70% in size
test.conditions: P. falciparum Dd2 in RBCs, SYBR Green growth, 72 h; series mostly up to 28.7 µM
The campaign covered roughly 4,100 compounds. About 1,600 (39%) were called active. Not shown: some 25% with an inconclusive outcome. Calls come from the whole dose curve; as a rule, active = well fitted inhibition curve with a large enough effect; inconclusive = small, poorly fitted or top-dose-only effect; inactive = no such curve, though single readings can be large or run the other way. The list shows a part of the results.
Would you mind answering with one of these outcomes? 1.0 = active, 0.0 = inactive

Task item: What did this assay record as the result for `COc1ccc(C(=O)N2CCc3ccc(C(=O)NCc4ccccn4)cc32)cc1` ?
Reply: 0.0

Task item: What did this assay record as the result for `Cc1ccnc(NS(=O)(=O)c2ccc(NC(=O)C(C)(C)C)cc2)n1` ?
Reply: 0.0

Task item: What did this assay record as the result for `Cc1cc(Nc2cccc(F)c2)nc(NCc2ccccc2)n1` ?
Reply: 1.0

Task item: What did this assay record as the result for `COc1cccc(CN2CCc3c(cc(C(=O)NCc4ccccn4)n3C)C2)c1` ?
Reply: 1.0

Task item: What did this assay record as the result for `CCN(Cc1ccccc1)Cc1c(O)ccc2oc(C)c(C(=O)Nc3ccccc3C)c12` ?
Reply: 1.0

Task item: What did this assay record as the result for `CN(CC1CCOCC1)S(=O)(=O)c1ccc(F)c(Cl)c1` ?
Reply: 0.0

----------
experiment.description: qHTS Validation assay for Inhibitors of Plasmodium falciparum Dd2 growth in vitro; note: nearly all actives have a fitted effect of over 70% in size
test.conditions: P. falciparum Dd2 in RBCs, SYBR Green growth, 72 h; series mostly up to 28.7 µM
Screen size: about 4,100 compounds; about 1,600 (39%) were called active. Another 25% or so got no clear call; they are omitted. Calls come from the whole dose curve; as a rule, active = well fitted inhibition curve with a large enough effect; inconclusive = small, poorly fitted or top-dose-only effect; inactive = no such curve, though single readings can be large or run the other way. The list shows a part of the results.
Would you mind answering with one of these outcomes? active, inactive

Task item: What did this assay record as the result for `CCOc1ccc(C(=O)Nc2cc(C)on2)cc1` ?
Reply: inactive

Task item: What did this assay record as the result for `CCOC(=O)c1c(CN(CC)CC)n(C)c2cc(Br)c(O)cc12` ?
Reply: active

Task item: What did this assay record as the result for `COc1ccc(CC(=O)N[C@@H]2CN(c3ccccn3)C[C@H]2CN(C)C)cc1` ?
Reply: inactive

Task item: What did this assay record as the result for `Oc1ccc(-c2nc(C3CC3)nc3c2CN(CC2CCCCC2)CC3)cc1` ?
Reply: active

Task item: What did this assay record as the result for `CSc1cccc(NC(=O)Cn2c(-c3ccc(F)cc3)nc(C)c(CCO)c2=O)c1` ?
Reply: active

Task item: What did this assay record as the result for `CCOC(=O)C1CCN(C(=O)c2cc(C(C)(C)C)nn2Cc2ccccc2)CC1` ?
Reply: active

Task item: What did this assay record as the result for `Cc1cc(NC(=O)CN2CCN(c3ccc(O)cc3)CC2)no1` ?
Reply: active

Task item: What did this assay record as the result for `Cc1nc(-c2ccc(F)cc2)n(CC(=O)Nc2cccc(Cl)c2)c(=O)c1CCO` ?
Reply: active

Task item: What did this assay record as the result for `CCc1noc(-c2cccn3c(CNC(=O)c4cccc(N(C)C)c4)nnc23)n1` ?
Reply: inactive

Task item: What did this assay record as the result for `CCOC(=O)c1c(CN2CCCCC2)n(C)c2cc(Br)c(O)cc12` ?
Reply: active

Task item: What did this assay record as the result for `CCn1nc(C)cc1C(=O)N1Cc2cnn(Cc3ccc(F)cc3)c2C1` ?
Reply: inactive

----------
experiment.description: qHTS Validation assay for Inhibitors of Plasmodium falciparum Dd2 growth in vitro; note: nearly all actives have a fitted effect of over 70% in size
test.conditions: P. falciparum Dd2 in RBCs, SYBR Green growth, 72 h; series mostly up to 28.7 µM
In all, about 4,100 compounds went through this assay and about 1,600 (39%) were called active. Inconclusive results (about 25%) are left out. Calls follow the shape of the dose curve; as a rule, active = well fitted inhibition curve with a large enough effect; inconclusive = small, poorly fitted or top-dose-only effect; inactive = no such curve, though single readings can be large or run the other way. Some of the results follow.
Would you mind answering with one of these outcomes? true for active, false for inactive

Task item: What did this assay record as the result for `COc1cccc(-c2noc(CCCc3nc(-c4cccnn4)no3)n2)c1` ?
Reply: false

Task item: What did this assay record as the result for `Cc1noc(C)c1-c1cc2c(cc(C)n2CCN(C)C)c(Nc2ccn(C)n2)n1` ?
Reply: true

Task item: What did this assay record as the result for `CCN(CC)CCNC(=O)c1ccc(NC(=O)c2ccc(S(=O)(=O)N3CCCCCC3)cc2)cc1` ?
Reply: true

Task item: What did this assay record as the result for CCc1cccc(NC(=O)C2CCN(C(=O)c3nnn4c3COC(c3ccc(C)cc3)C4)CC2)c1 (configuration not stated) ?
Reply: false

Task item: What did this assay record as the result for CC(C)(C)c1ccc(C(=O)N2CCN(C(=O)c3nnn4c3COC(c3ccccc3)C4)CC2)cc1 (configuration not stated) ?
Reply: true

Task item: What did this assay record as the result for `CCc1cccc(C)c1Nc1c(-c2cccc(O)c2)nc2sccn12` ?
Reply: false

Task item: What did this assay record as the result for `Cc1cc(C)cc(N=Cc2[nH]c3ccc(Br)c(Cl)c3c2O)c1` ?
Reply: true
